biological target: hTREM2 (Homo sapiens, UniProt Q9NZC2); experiment: Phospho-Syk AlphaScreen/AlphaLISA assay in TREM2 and DAP12 overexpressing HEK293 cells (Example A1); assay type: cell-based; design: expressed in transfected cells; settings: HEK293 cells
Sequence (Q9NZC2 19-230): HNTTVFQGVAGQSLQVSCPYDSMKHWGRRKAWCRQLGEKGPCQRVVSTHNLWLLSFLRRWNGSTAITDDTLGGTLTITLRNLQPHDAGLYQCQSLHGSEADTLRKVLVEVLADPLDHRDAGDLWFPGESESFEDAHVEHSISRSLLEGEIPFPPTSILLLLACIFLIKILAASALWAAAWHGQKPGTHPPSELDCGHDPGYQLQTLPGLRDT
Sequence (O43914 22-113 partner): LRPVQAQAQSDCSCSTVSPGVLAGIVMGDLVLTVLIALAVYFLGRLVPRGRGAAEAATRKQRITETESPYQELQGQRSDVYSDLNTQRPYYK
quantity name: Emax

Solved entries:
| compound | Emax |
| --- | --- |
| Cc1nc2cc(N3CCO[C@@H](c4cnn(C)c4)C3)nc(-c3ccc(Cl)c(F)c3F)c2c(=O)n1C | ++++ (Emax>300) |
| CCc1nnc(C2CN(c3cc4nc(C)n(C)c(=O)c4c(-c4ccc(Cl)cc4F)n3)CCO2)o1 (stereo not shown) | ++++ (Emax>300) |
| Cc1nc2cc(N3CCC[C@H](c4ccncc4)C3)nc(-c3ccc(Cl)cc3F)c2c(=O)n1C [Example 233] | ++++ (Emax>300) |
| CCCn1c(C)nc2cc(N3CCO[C@@H](c4cnn(C)c4)C3)nc(-c3ncc(Cl)cc3F)c2c1=O | ++++ (Emax>300) |
| Cc1nc2cc([C@@H]3CCO[C@H](c4cnn(C)c4)C3)nc(-c3ccc(Cl)cc3F)c2c(=O)n1C [Example 275] | ++ (Emax>100 and ≤200) |

Now look at this one.
Param readout= Emax; system= hTREM2 (Homo sapiens, UniProt Q9NZC2); entry= Cc1cn2c(n1)CN(c1cc3nc(C)n(C)c(=O)c3c(-c3ccc(Cl)cc3F)n1)CC2 ; returns value.
++ (Emax>100 and ≤200)
